TEST_TARGET: Bifunctional dihydrofolate reductase-thymidylate synthase (Plasmodium falciparum K1)
PROTOCOL_DESCRIPTION: Inhibition constant for PfDHFR (Plasmodium falciparum dihydrofolate reductase) with quadruple (N51I + C59R + S108N + I164L) mutations; Not active
The source made the active and inactive calls. No cut-off for these calls is given here.
MEASURE_NAME: NA

COMPOUND | NA
NC(=O)Nc1ccc(Cc2ccc(NC(N)=O)cc2)cc1 | inactive
NC1=NC(c2ccccc2)C(C(=O)c2ccccc2)N1 (stereo not given) | inactive
CNC(=O)Nc1ccc(Cc2ccc(NC(=O)NC)cc2)cc1 | inactive
NC(=O)NC(=O)Cc1ccccc1 | inactive

Now for another entry.
Enquiry: What reported NA corresponds to NC(=O)Nc1ccc(Oc2ncc(C(F)(F)F)cc2Cl)cc1 on Bifunctional dihydrofolate reductase-thymidylate synthase (Plasmodium falciparum K1)?
Return: inactive
